Data origin: a melting point compilation (Tetko et al.)

// reported melting point per item

> print(dat)
                                   molecule         metric  reported.result
1           Cc1ccccc1-c1cc(N)n(Cc2ccccc2)n1  melting point    139 to 141 °C
2                 COc1ccc(-c2nnc(N)o2)cc1OC  melting point    235 to 237 °C
3             O=C(CNCc1cccnc1)Nc1ccc(Cl)cc1  melting point      81 to 83 °C
4            O=C(CO)Nc1cccc([N+](=O)[O-])c1  melting point    182 to 184 °C
5  CCS(=O)(=O)NC1CCCNC1 (stereo unspecified)  melting point    104 to 106 °C
6  CC1CC1c1ccc(/C=C/C(=O)O)o1 (stereo unspecified)  melting point      73 to 75 °C
7                  Nc1ccc(S(N)(=O)=O)c(F)c1  melting point    152 to 154 °C
8      O=C(O)CCc1ccc(S(=O)(=O)N2CCCCCC2)cc1  melting point    122 to 124 °C

Challenge: So what does the record say about melting point for NCCS(=O)(=O)Cc1ccccc1 ?
Response given: 76 to 78 °C

Challenge: Item CS(=O)(=O)Nc1ccc(O)c(C(=O)O)c1 has what recorded melting point?
Response given: 228 to 230 °C

Challenge: If you can, please state the reported melting point value of Cc1ccc(C(=O)C(=O)O)cc1 .
Response given: 176 to 178 °C

###

melting point listing for selected molecules.

> print(dat)
                  molecule         metric  reported.result
1  CS(=O)(=O)CCS(=O)(=O)Cl  melting point    119 to 121 °C

Challenge: Item under review: O=C(NC(C(=O)O)c1ccccc1)c1cccs1 (stereo not given) . Reported melting point?
Response given: 185 to 187 °C

Challenge: Please report the recorded melting point for Nc1cccc(C#Cc2ccccc2)c1 .
Response given: 47 to 49 °C

Challenge: Reported melting point, molecule CC(=O)N(C)CC(=O)O : ____
Response given: 137 to 139 °C

Challenge: Requested field: melting point. Item: Cc1nn(-c2cccc(F)c2)c(C(F)F)c1C(=O)O
Response given: 187 to 189 °C

Challenge: Which melting point reading was recorded for the molecule CCn1c(SCC(=O)O)nnc1-c1cccc(C)c1 ?
Response given: 281 to 283 °C

Challenge: Given Sc1nnc(C2CC2)o1 , state its recorded melting point.
Response given: 131 to 133 °C

Challenge: What does the record list as melting point for OCCOc1cc(Cl)ccc1Cl ?
Response given: 59 to 61 °C

###

As shown below, each of these compounds has a reported melting point value.

Some solved entries appear below for comparison.
> print(dat)
                                   compound         metric  reported.result
1                 CCOc1cc(C(=O)O)cc(Br)c1OC  melting point    182 to 184 °C
2            Nc1ccccc1C(=O)Nc1ccc2c(c1)OCO2  melting point      85 to 87 °C
3  Cc1ccc(N2CCC(Br)C2=O)cc1 (centres undefined)  melting point      83 to 85 °C

Challenge: Need melting point of O=C(O)c1cccc(-n2cccn2)n1 , thanks.
Response given: 184 to 186 °C

Challenge: For the compound shown here, Cn1c(C2CC2)nc2cc(N)ccc21 , give the reported melting point.
Response given: 99 to 101 °C

Challenge: Quick one: melting point of O=C(O)CNS(=O)(=O)c1cc(C(F)(F)F)ccc1Cl ?
Response given: 157 to 159 °C

Challenge: For the compound O=C(O)c1cccc(S(=O)(=O)NCc2ccccc2)c1 , what melting point is on record?
Response given: 225 to 227 °C

Challenge: Field request: melting point | item: NC(=O)COc1ccc(Cl)cc1S(=O)(=O)Cl
Response given: 143 to 145 °C

Challenge: For COc1cccc(-c2nnc(N)s2)c1 , what is its reported melting point?
Response given: 156 to 158 °C

Challenge: Endpoint output: melting point of O=C(O)c1cc(-c2ccccc2)c(N2CCOCC2)s1 . Value?
Response given: 172 to 174 °C

###

METRIC: melting point

Challenge: Using the record for O=C(CCl)Nc1nnc(-c2ccccc2)o1 , report its melting point.
Response given: 219 to 221 °C

Challenge: Entry Cc1cccn2c(=O)cc(Cl)nc12 has what melting point?
Response given: 124 to 126 °C

Challenge: Record request: melting point value, item CNc1snc(C)c1C(=O)O
Response given: 151 to 153 °C

Challenge: Recorded melting point of Cc1ccc(Cl)cc1N1CC(C(=O)O)CC1=O (stereo unspecified) , please.
Response given: 129 to 131 °C

Challenge: What does the record list as melting point for O=C(O)c1c2c(nc3ccccc13)C(=Cc1cccs1)CCC2 ?
Response given: 176 to 178 °C

Challenge: Look up melting point: NNC(=O)c1cccc(S(=O)(=O)Nc2ccc(Cl)cc2)c1
Response given: 191 to 193 °C

###

METRIC: melting point

Record excerpt, results attached:
> print(dat)
                       molecule         metric  reported.result
1    NS(=O)(=O)N1CCC(C(=O)O)CC1  melting point    177 to 179 °C
2  O=S(=O)(Cl)c1c(Cl)cc(F)cc1Br  melting point      55 to 57 °C

Challenge: Requested field: melting point. Item: Cc1cccc(S(=O)(=O)Cl)c1C#N
Response given: 74 to 76 °C

Challenge: Returns the measured melting point for the input molecule. Input: CNCC1CCN(c2ccncc2)CC1
Response given: 65 to 67 °C

###

METRIC: melting point

Recorded melting point, per entry:
> print(dat)
                                    molecule  reported.result
 1           CN(C)c1ccc(NCc2ccc3ccccc3n2)cc1    104 to 106 °C
 2                O=C(O)c1cc2c([nH]c1=O)CCC2    273 to 275 °C
 3                     Clc1cccc(-c2ccccn2)n1      62 to 64 °C
 4                      O=C1COc2c(Cl)cccc2N1    201 to 203 °C
 5             NC(=NO)c1cccc([N+](=O)[O-])c1    182 to 184 °C
 6  COc1ccccc1C(NC(=O)OC(C)(C)C)C(=O)O (stereo unspecified)    146 to 148 °C
 7  N#Cc1ccc(NC(=O)NC(CCC(=O)O)C(=O)O)cc1 (stereo unspecified)    169 to 171 °C
 8                        NS(=O)(=O)Cc1ccon1    106 to 108 °C
 9             Fc1ccc(-n2nc(CCl)c3c2CCC3)cc1    101 to 103 °C
10                              O=S1(=O)CCN1      51 to 53 °C

Challenge: Suppose we examine the molecule O=c1ccc(=O)n(-c2ccc([N+](=O)[O-])cc2)[nH]1 ; what melting point value has been reported?
Response given: 308 to 310 °C

Challenge: Consider the molecule Nc1cc(Cl)ccc1C(=O)N1CCCCC1CCO (stereo unspecified) and give its measured melting point.
Response given: 115 to 117 °C

Challenge: // returns reported melting point for input FC(F)(F)Cc1nnc2ccc(Cl)nn12
Response given: 137 to 139 °C

Challenge: What measured melting point goes with N#Cc1ccccc1COc1ccc(C(=O)O)cc1 ?
Response given: 211 to 213 °C

Challenge: Which value of melting point has been reported for CN(C)CC(O)C(F)(F)F (stereo unspecified) in the records?
Response given: 63 to 65 °C

Challenge: Requested read-out: melting point. Entry: CC(=O)c1cnn(-c2ccccc2)c1
Response given: 124 to 126 °C

Challenge: Reported melting point for CCCC(=O)N1CCCC(C(=O)O)C1 (stereo unspecified) : what is it?
Response given: 96 to 98 °C

Challenge: Given the molecule c1ccc(CNc2nccs2)cc1 , what is its reported melting point?
Response given: 127 to 129 °C

Challenge: Sample Nc1nnc(-c2cccc3ccccc23)[nH]1 — what was its melting point?
Response given: 219 to 221 °C

Challenge: Data request, read-out melting point, for O=C(O)CC(O)(c1nccn1Cc1ccccc1)C(F)(F)F (stereo unspecified)
Response given: 152 to 154 °C

Challenge: Using the record for Cc1nc2c(F)cccc2c(Cl)c1C , report its melting point.
Response given: 95 to 97 °C

###

METRIC: melting point

> print(dat)
                                   compound  reported.result
1  COc1ccc(S(=O)(=O)N(C)C)cc1NC(=O)C(C)Cl (centres undefined)    107 to 109 °C

Challenge: Fill blank: measured melting point of the compound COc1ccc(C(=O)N2CCC(C(=O)O)CC2)c2ccccc12 is ____.
Response given: 254 to 257 °C

Challenge: Would you kindly share the measured melting point for NCC(O)c1cccc(F)c1 (centres undefined) ?
Response given: 42 to 44 °C

Challenge: Need melting point of Cc1cc(N2CCCS2(=O)=O)ccc1C(=O)O , thanks.
Response given: 249 to 251 °C

Challenge: Please give the measured melting point for this compound: O=C(CCl)Nc1ccccc1C(=O)O
Response given: 185 to 187 °C

Challenge: Reported melting point for Nc1ccnn1Cc1ccc(Br)cc1 : what is it?
Response given: 97 to 99 °C

Challenge: Consider the compound shown here: CNC(=O)OCC(F)(F)F What is its recorded melting point?
Response given: 35 to 37 °C

Challenge: Look up melting point for this compound: COC(=O)CNc1cccc(F)c1
Response given: 65 to 67 °C

Challenge: Given the compound CC(C)n1cnc2cc(C(=O)O)ccc21 , what is its reported melting point?
Response given: 216 to 218 °C

Challenge: What does the record list as melting point for ClCc1ccnc(-c2ccc(Br)cc2)n1 ?
Response given: 126 to 128 °C

Challenge: Recorded melting point of O=C(O)C1CCN(S(=O)(=O)c2ccc3c(c2)CCC3)CC1 , please.
Response given: 170 to 172 °C

Challenge: Param item = O=C(CCl)NCCC1=CCCCC1 ; retrieve measured melting point.
Response given: 60 to 62 °C

Challenge: Dear colleague, I am looking for the recorded melting point of the following compound: N#Cc1ccc(N=C=S)cc1Cl
Response given: 75 to 77 °C

Challenge: Which melting point value is on record for CCOC(=O)C1=NN(c2ccc(Cl)cc2)C(=O)C1 ?
Response given: 141 to 143 °C

Challenge: Name the reported melting point value associated with the compound COc1ccc2cc(N)ccc2n1
Response given: 101 to 103 °C

Challenge: # get_value(readout='melting point', item= CC(=O)NNC(=O)C(C)Cl (centres undefined) )
Response given: 156 to 158 °C

Challenge: What value of melting point has been reported for the following compound? Cc1cc(C)c(C(=O)O)c(N)c1
Response given: 103 to 105 °C
